Test: thallium influx changes without GIRK channels – cell-based, HEK-293 rmGlu8, no GIRK, thallium flux, counter-screen for GIRK activator project, confirmation (AID 623868);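 also: extra codes mark interference with 3 for fluorescent and 4 for baseline rise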
Conditions: thallium flux fluorescence, at 10 µM, actives lie on both sides, codes: 1 enhancer, -1 blocker, 0 none, thallium stimulus containing EC20 glutamate
Hit rate of the full screen: of about 2,100 compounds, about 760 (36%) were called active.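 The calls were made as follows: active = thallium-flux fluorescence traces judged by eye to show enhanced or reduced glutamate response, manual score 1 or -1, so both directions (some results past the limit were not filed as active); inactive = the rest, including fluorescent or raised-baseline compounds.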 Not all results are given here.
Possible outcomes: 1.0 for active, 0.0 for inactive

[[record]]
substance_smiles = "C=C(C)CNC(=S)Nc1nc2c(cc1C(=O)OCC)CCCC2"
label_value = 1.0

[[record]]
substance_smiles = "CCn1c(SCC(N)=O)nc2sc3c(c2c1=O)CCCC3"
label_value = 1.0

[[record]]
substance_smiles = "CCCC(=O)Nc1ccc(NC(=O)C2CC2)cn1"
label_value = 0.0

[[record]]
substance_smiles = "Cc1cc(NC(=O)Nc2ccccc2)n(-c2ccccc2)n1"
label_value = 0.0

[[record]]
substance_smiles = "O=C(N/C(=N\\O)c1ccccc1)Nc1ccc(Cl)cc1"
label_value = 0.0

[[record]]
substance_smiles = "Oc1ccc2ccc3cccc[n+]3c2c1"
label_value = 0.0

[[record]]
substance_smiles = "CCOC(=O)c1cc(NC(=O)SCC(=O)O)c(C)nc1C"
label_value = 0.0

[[record]]
substance_smiles = "Cc1cc(NC(=O)c2c(F)cccc2Cl)n(-c2nc3ccccc3[nH]2)n1"
label_value = 0.0

[[record]]
substance_smiles = "C=C(C)CNC(=S)N/N=C1\\CCCCc2ccccc21"
label_value = 0.0

[[record]]
substance_smiles = "CC(C)n1c(CCC(=O)O)ccc1-c1ccccc1"
label_value = 0.0

[[record]]
substance_smiles = "CC(C)c1nc(=S)n(-c2ccccc2)[nH]1"
label_value = 1.0

[[record]]
substance_smiles = "Cc1cc(C)cc(NC(=O)Cn2cc3c(n2)CCCCC3)c1"
label_value = 0.0


* * *

Assay: thallium influx changes without GIRK channels – cell-based, HEK-293 rmGlu8, no GIRK, thallium flux, counter-screen for GIRK activator project, confirmation (AID 623868);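 also: extra codes mark interference with 3 for fluorescent and 4 for baseline rise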
Conditions: thallium flux fluorescence, at 10 µM, actives lie on both sides, codes: 1 enhancer, -1 blocker, 0 none, thallium stimulus containing EC20 glutamate
The campaign covered roughly 2,100 compounds. About 760 (36%) were called active. Not all results are given here.
Measured manual score of individual entries
metric: manual score

[[record]]
molecule = "CC(O)c1nc2ccccc2n1C1CCCCC1 (stereo unspecified)"
metric = "manual score"
endpoint_value = 0

[[record]]
molecule = "Clc1ccccc1-c1nn2c(COc3ccccc3)nnc2s1"
metric = "manual score"
endpoint_value = 0

[[record]]
molecule = "Fc1cccc2sc(Nc3nnc(-c4ccccc4)o3)nc12"
metric = "manual score"
endpoint_value = 1

[[record]]
molecule = "O=C(Cc1ccccc1)N/N=C/c1cccn1-c1ccc([N+](=O)[O-])cc1"
metric = "manual score"
endpoint_value = 0

[[record]]
molecule = "Cc1ccc([N+](=O)[O-])cc1NC(=S)NC(=O)c1ccco1"
metric = "manual score"
endpoint_value = 1

[[record]]
molecule = "S=c1[nH]nc(COc2ccccc2)n1C1CCCCC1"
metric = "manual score"
endpoint_value = 1

[[record]]
molecule = "COc1cccc(C(=O)NC(=S)Nc2ccc([N+](=O)[O-])cc2C)c1"
metric = "manual score"
endpoint_value = 1

[[record]]
molecule = "Fc1cccc2sc(Nc3nnc(-c4ccco4)o3)nc12"
metric = "manual score"
endpoint_value = 1

[[record]]
molecule = "Cc1cc([N+](=O)[O-])ccc1NC(=S)NC(=O)Cc1ccccc1"
metric = "manual score"
endpoint_value = 1

[[record]]
molecule = "S=c1[nH]nc(CSc2nc3ccccc3s2)n1C1CCCCC1"
metric = "manual score"
endpoint_value = 1

[[record]]
molecule = "O=C(NC(=S)Nc1cc([N+](=O)[O-])ccc1Cl)c1ccccc1"
metric = "manual score"
endpoint_value = 0


* * *

Experiment: thallium influx changes without GIRK channels – cell-based, HEK-293 rmGlu8, no GIRK, thallium flux, counter-screen for GIRK activator project, confirmation (AID 623868);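 also: extra codes mark interference with 3 for fluorescent and 4 for baseline rise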
Conditions: thallium flux fluorescence, at 10 µM, actives lie on both sides, codes: 1 enhancer, -1 blocker, 0 none, thallium stimulus containing EC20 glutamate
The whole screen tested about 2,100 compounds, of which about 760 (36%) were called active.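 How the source made its calls: active means thallium-flux fluorescence traces judged by eye to show enhanced or reduced glutamate response, manual score 1 or -1, so both directions (some results past the limit were not filed as active); inactive means the rest, including fluorescent or raised-baseline compounds.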 Not all results are given here.
Possible outcomes: active, inactive

[[record]]
compound = "O=C(NC(=S)N1CCCc2ccccc21)c1ccc([N+](=O)[O-])cc1"
label_value = "active"

[[record]]
compound = "CCc1cc(-c2n[nH]c(=S)n2C(C)c2ccccc2)cs1 (configuration not stated)"
label_value = "active"

[[record]]
compound = "CN(C)CCCOc1ccc(C(C)(C)c2ccccc2)cc1"
label_value = "inactive"

[[record]]
compound = "Cc1ccc(NC(=O)COn2nnc3ccc(S(=O)(=O)N(C)C)cc32)cc1F"
label_value = "inactive"

[[record]]
compound = "O=C(NNC(=S)Nc1cccc2ccccc12)c1cccc(Br)c1"
label_value = "active"

[[record]]
compound = "COCc1nnc(NC(=O)C(C)C)s1"
label_value = "inactive"

[[record]]
compound = "Cc1ccc2nsnc2c1NC(=S)NC(=O)c1ccco1"
label_value = "active"

[[record]]
compound = "CC12CCC(C(=O)N3CCCc4ccccc43)(CC1=O)C2(C)C (configuration not stated)"
label_value = "inactive"

[[record]]
compound = "O=C(N/N=C/c1ccc(Sc2ccccn2)o1)c1cc2ccccc2cc1O"
label_value = "active"

[[record]]
compound = "NC(=O)Nc1cccc2ccccc12"
label_value = "inactive"

[[record]]
compound = "Nc1nnc(C(=O)c2ccccc2N)s1"
label_value = "inactive"

[[record]]
compound = "Nc1nc2n(n1)C(c1cccs1)CC(c1ccc(F)cc1)N2 (configuration not stated)"
label_value = "inactive"

[[record]]
compound = "C=C(C)CNC(=S)Nc1cccc2cnccc12"
label_value = "inactive"

[[record]]
compound = "CCCCCNC(=O)c1ccc2c(=O)[nH]c3c(C(=O)NCC4CCCO4)sc(=S)n3c2c1 (configuration not stated)"
label_value = "active"

[[record]]
compound = "CCCc1cc(-c2n[nH]c(=S)n2Cc2ccccc2)cs1"
label_value = "active"

[[record]]
compound = "O=c1c2ccc(Cl)cc2nc(-c2cccc(C(F)(F)F)c2)n1O"
label_value = "active"

[[record]]
compound = "O=C(CN1CCCCC1)Nc1cccc(Oc2ccccc2)c1"
label_value = "inactive"

[[record]]
compound = "Cc1cccc(NC(=S)NC(=O)c2ccco2)n1"
label_value = "active"

[[record]]
compound = "CCCOc1ccc(/C=N/NC(=O)C(=O)Nc2ccccn2)cc1"
label_value = "inactive"

[[record]]
compound = "CCOc1cc(N2CCOCC2)c(OCC)cc1NC(=O)COC(=O)CCc1c[nH]c2ccccc12"
label_value = "inactive"

[[record]]
compound = "Cc1cc(C)n(-c2ccc(C(=O)OCC(=O)Nc3ccc(Cl)c(S(=O)(=O)N(C)C)c3)cc2)n1"
label_value = "inactive"

[[record]]
compound = "Cc1sc2nc(CN3CCCC3)nc(N3CCN(S(=O)(=O)c4cccs4)CC3)c2c1C"
label_value = "inactive"

[[record]]
compound = "O=C(NC(=S)N1CCc2ccccc21)c1ccccc1"
label_value = "active"

[[record]]
compound = "CN(C)S(=O)(=O)c1ccc(C(=O)Nc2nnc(-c3ccc4c(c3)CCCC4)o2)cc1"
label_value = "inactive"

[[record]]
compound = "CCCCn1c(-c2csc(C(C)C)c2)n[nH]c1=S"
label_value = "active"

[[record]]
compound = "Cc1nc(N2CCN(C(=O)COc3ccccc3)CC2)c2c(C)c(C)sc2n1"
label_value = "active"

[[record]]
compound = "Cc1ccc(C(=O)NNC(=S)Nc2cccc3ccccc23)s1"
label_value = "active"

[[record]]
compound = "c1ccc2c(NC3CCCC3)nnc(NC3CCCC3)c2c1"
label_value = "inactive"

[[record]]
compound = "O=S(=O)(Cc1ccccc1)N1CCc2ccccc21"
label_value = "inactive"

[[record]]
compound = "CCCOC(=O)c1ccc(-c2c(C)noc2-c2ccc(OC)cc2O)o1"
label_value = "active"

[[record]]
compound = "CC(C)(C)c1nnc(N/N=C/c2ccccc2)n(N)c1=O"
label_value = "inactive"

[[record]]
compound = "CCCc1cc(-c2n[nH]c(=S)n2C(C)c2ccccc2)cs1 (configuration not stated)"
label_value = "inactive"

[[record]]
compound = "CCCCOc1ccccc1C1C(C(=O)OC)=C(C)N(C)C(C)=C1C(=O)OC"
label_value = "inactive"

[[record]]
compound = "O=C(NC(=S)N1CCCc2ccccc21)c1ccc(Cl)cc1"
label_value = "active"

[[record]]
compound = "O=C(NNC(=S)Nc1ccccc1)c1cccc(Br)c1"
label_value = "active"

[[record]]
compound = "Oc1cccc(NC(=S)Nc2ccc(SC(F)F)cc2)c1"
label_value = "inactive"

[[record]]
compound = "O=C(CN1C(=O)c2cccc3cccc(c23)C1=O)N1CCN(c2ccccn2)CC1"
label_value = "inactive"

[[record]]
compound = "Cc1cc(NC(=O)c2ccco2)ccc1NC(=O)Cc1cccs1"
label_value = "inactive"

[[record]]
compound = "COc1ccc(CO/N=C/c2c(C)[nH]c(=O)[nH]c2=O)cc1"
label_value = "inactive"

[[record]]
compound = "O=C(Nc1cccc(-c2nnc(-c3ccccc3)o2)c1)C1CCCO1 (configuration not stated)"
label_value = "inactive"

[[record]]
compound = "S=c1[nH]nc(-c2cc3c(s2)-c2ccccc2CC3)o1"
label_value = "active"

[[record]]
compound = "O=C(CC(=O)Nc1ccccn1)Nc1ccccn1"
label_value = "inactive"

[[record]]
compound = "O=C(CSc1nc(-c2ccccc2)cc(=O)[nH]1)N1CCc2ccccc21"
label_value = "inactive"

[[record]]
compound = "CN1CCN(C(=O)Nc2cccc3ccccc23)CC1"
label_value = "inactive"

[[record]]
compound = "O=S(=O)(c1ccccc1)N1CCN(C(=S)Nc2ccc(F)cc2)CC1"
label_value = "inactive"

[[record]]
compound = "Clc1ccc(Cc2ccc(SCc3ccccc3)nn2)c(Cl)c1"
label_value = "inactive"

[[record]]
compound = "Cc1[nH]n(-c2ccc(F)cc2)c(=O)c1/C=N/c1sc2c(c1C#N)CCCC2"
label_value = "inactive"

